Biological target: Left-right determination factor 2 (Homo sapiens)
Test: small molecules binding LEFTY2 protein – biochemical, small-molecule microarray, 635 nm fluorescence scan, primary screen (AID 1110)
Details: higher = more signal
value.kind: composite z-score
Lab note: jot the number down without any unit.

molecule=O=C(NC1CC1)[C@@H]1c2ccccc2C(=O)N(Cc2cc(F)cc(C(F)(F)F)c2)[C@H]1c1ccc(CO)cc1 reported_measurement=-1.05
molecule="O=C1C2C=CC(C(O)c3ccc4c(c3)OCO4)N(Nc3ccc([N+](=O)[O-])cc3)C2C(=O)N1c1ccccc1 (centres undefined)" reported_measurement=0.219
molecule=C=C(/C(=C/C[C@H](OC(C)=O)c1ccc(OCCO)cc1)c1cc(C(=O)OC)ccc1OC)C(C)C reported_measurement=0.323
molecule=CC(C)(C)OC(=O)CC[C@@]1(C(=O)N2CCCCC2)N=C(c2ccc(OCCCO)cc2)O[C@@H]1c1ccccc1 reported_measurement=0.0209
molecule=C=C[C@H](C)[C@@H](OC(=O)Nc1ccc(SC)cc1)c1ccc(O)c2ccccc12 reported_measurement=1.23

Exercise: Form field: reported composite z-score of COC(=O)c1c(CC[C@@H](CO)NC(=O)N[C@@H](Cc2ccccc2)Cn2cc(-c3ccccn3)nn2)oc(C(=O)N2CCOCC2)c1C(=O)OC
Key: 0.0348

Exercise: Form field: reported composite z-score of CC(=O)n1cc(C(O)C2C=CC3C(=O)NC(=O)C3N2Nc2ccccn2)c2ccccc21 (centres undefined)
Key: 0.0729
